- TESTED ON: MAGE-A11:PCF11 interaction (GST-MAGE-A11 and FAM-PCF11_4) (Homo sapiens, UniProt P43364)
- Construct: GST-MAGE-A11 MHD (human MAGE-A11 MHD amino acid 218-429); made in house; host or cells: E. coli BL21(DE3)
- Sequence (P43364 218-429): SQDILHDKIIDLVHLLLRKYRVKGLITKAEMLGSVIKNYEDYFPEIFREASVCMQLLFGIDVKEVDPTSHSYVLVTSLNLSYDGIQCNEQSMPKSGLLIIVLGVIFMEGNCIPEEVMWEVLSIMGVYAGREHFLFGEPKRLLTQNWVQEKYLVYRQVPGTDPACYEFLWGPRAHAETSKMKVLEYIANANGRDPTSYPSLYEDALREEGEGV
- TEST SUMMARY: TR-FRET primary / single point screen at 15 µM
- Assay type: binding
- TEST PARAMETERS: single point TR-FRET screening of quinoline compounds against MAGE-A11:PCF11; 15 µM
- Method: The TR-FRET assay buffer with a formula of 50 mM Tris pH 7.5, 20 mM MgCl2, 0.1 mg/ml BSA and 1 mM DTT was freshly prepared before each experiment. […] After incubation, the fluorescent emission signals at 520 nm and 490 nm channels of individual wells were measured with a PHERAstar FS plate reader (BMG Labtech; Durham, NC, USA) by using a 340 nm excitation filter, 100 µs delay time, and 200 µs integration time. […] The TR-FRET signals for individual wells were measured with a PHERAstar FS plate reader. […]
READOUT NAME: percent inhibition (TR-FRET)

{"columns": ["CHEMICAL STRUCTURE", "DATA VALUE"],
 "data": [
  ["CCCN(CCCNc1ccnc2cc(Cl)ccc12)Cc1ccc(F)cc1", 20.7933],
  ["Cc1cc(C)cc(Cc2ccc3c(NCCCNCc4ccco4)ccnc3c2)c1", 39.3055],
  ["CCCN(CCCNc1c2ccc(Cl)cc2nc2ccc(OC)cc12)Cc1cccc(C(F)(F)F)c1", 16.1546],
  ["CC(C)(C)CCNCCCNc1ccnc2cc(C(F)(F)F)ccc12", 27.3587],
  ["COc1ccc2nc3cc(Cl)ccc3c(NCCCNCc3cccc(OC(F)(F)F)c3)c2c1", -73.5426],
  ["CCCN(CCCNc1ccnc2cc(C(F)(F)F)ccc12)Cc1cccc(F)c1", 27.8488],
  ["CCCN(CCCNc1ccnc2cc(C(F)(F)F)ccc12)Cc1cccc(C)c1", 20.1719],
  ["CC(C)CN(CCCNc1ccnc2cc(Cl)ccc12)Cc1ccccc1", 18.7467],
  ["CCCN(CCCNc1ccnc2cc(Cl)ccc12)Cc1ccccc1F", 21.9858]
]}
